Assay: Antioxidant activity: free radical scavenging method by DPPH assay
Conditions: 50 μg/ml, 30 min, 517 nm
Procedure: The antioxidant activity of the newly synthesized compounds were evaluated spectrophotometrically using free radical scavenging method by DPPH (2,2-diphenyl-1-picrylhydrazyl) assay. The DPPH is a stable free radical with maximal absorption at 517 nm and is reduced to a corresponding hydrazine when it reacting with hydrogen donors. […] The solution mixture was shaken vigorously and kept in dark place for 30 min at room temperature and absorbance was measured by UV at 517 nm. […]
Reported % inhibition (DPPH), 50 μg/ml values for the following compounds.

compound: COc1ccc(C=C2SC(=O)NC2=O)cc1
readout.unit: %
% inhibition (DPPH), 50 μg/ml: 42.75
//
compound: COc1ccc(C=C2SC(=O)NC2=O)cc1OC
readout.unit: %
% inhibition (DPPH), 50 μg/ml: 39.67
//
compound: O=C1NC(=O)C(=Cc2ccc(Br)cc2)S1
readout.unit: %
% inhibition (DPPH), 50 μg/ml: 45.41
//
compound: O=C1NC(=O)C(=Cc2ccccc2O)S1
readout.unit: %
% inhibition (DPPH), 50 μg/ml: 40.24
//
compound: O=C1O[C@H]([C@@H](O)CO)C(O)=C1O [Ascorbic acid, ascorbic acid, reference compound]
readout.unit: %
% inhibition (DPPH), 50 μg/ml: 55.78
//
compound: O=C1NC(=O)C(=Cc2ccc(Cl)cc2Cl)S1
readout.unit: %
% inhibition (DPPH), 50 μg/ml: 42.67
//
compound: O=C1NC(=O)C(=Cc2ccccc2Cl)S1
readout.unit: %
% inhibition (DPPH), 50 μg/ml: 44.76
//
compound: COc1ccccc1C=C1SC(=O)NC1=O
readout.unit: %
% inhibition (DPPH), 50 μg/ml: 43.98
//
compound: O=C1NC(=O)C(=Cc2ccc([N+](=O)[O-])cc2)S1
readout.unit: %
% inhibition (DPPH), 50 μg/ml: 40.22
//
compound: COc1cccc(C=C2SC(=O)NC2=O)c1
readout.unit: %
% inhibition (DPPH), 50 μg/ml: 43.62
//
compound: O=C1NC(=O)C(=Cc2cccc([N+](=O)[O-])c2)S1
readout.unit: %
% inhibition (DPPH), 50 μg/ml: 35.61
//
compound: COc1cc(C=C2SC(=O)NC2=O)ccc1O
readout.unit: %
% inhibition (DPPH), 50 μg/ml: 43.52
//
compound: O=C1NC(=O)C(=C/C=C/c2ccccc2)S1
readout.unit: %
% inhibition (DPPH), 50 μg/ml: 46.93
//
compound: O=C1NC(=O)C(=Cc2ccc(O)cc2)S1
readout.unit: %
% inhibition (DPPH), 50 μg/ml: 39.78
//
compound: O=Cc1ccc(C=C2SC(=O)NC2=O)cc1
readout.unit: %
% inhibition (DPPH), 50 μg/ml: 41.64
//
compound: CN(C)c1ccc(C=C2SC(=O)NC2=O)cc1
readout.unit: %
% inhibition (DPPH), 50 μg/ml: 38.93
//
compound: O=C1NC(=O)C(=Cc2ccccc2[N+](=O)[O-])S1
readout.unit: %
% inhibition (DPPH), 50 μg/ml: 45.75
//
compound: CCOc1cc(C=C2SC(=O)NC2=O)ccc1O
readout.unit: %
% inhibition (DPPH), 50 μg/ml: 25.71
//
compound: COc1cc(C=C2SC(=O)NC2=O)cc(OC)c1OC
readout.unit: %
% inhibition (DPPH), 50 μg/ml: 39.67
//
compound: CCN(CC)c1ccc(/C=C2/SC(=O)NC2=O)cc1
readout.unit: %
% inhibition (DPPH), 50 μg/ml: 33.78

Every entry's value here was drawn from paper PMC6768028.
